Origin of measurements: ChEMBL document CHEMBL2413015

# measured-on: UniProt P06276
# Sequence (P06276 whole entry): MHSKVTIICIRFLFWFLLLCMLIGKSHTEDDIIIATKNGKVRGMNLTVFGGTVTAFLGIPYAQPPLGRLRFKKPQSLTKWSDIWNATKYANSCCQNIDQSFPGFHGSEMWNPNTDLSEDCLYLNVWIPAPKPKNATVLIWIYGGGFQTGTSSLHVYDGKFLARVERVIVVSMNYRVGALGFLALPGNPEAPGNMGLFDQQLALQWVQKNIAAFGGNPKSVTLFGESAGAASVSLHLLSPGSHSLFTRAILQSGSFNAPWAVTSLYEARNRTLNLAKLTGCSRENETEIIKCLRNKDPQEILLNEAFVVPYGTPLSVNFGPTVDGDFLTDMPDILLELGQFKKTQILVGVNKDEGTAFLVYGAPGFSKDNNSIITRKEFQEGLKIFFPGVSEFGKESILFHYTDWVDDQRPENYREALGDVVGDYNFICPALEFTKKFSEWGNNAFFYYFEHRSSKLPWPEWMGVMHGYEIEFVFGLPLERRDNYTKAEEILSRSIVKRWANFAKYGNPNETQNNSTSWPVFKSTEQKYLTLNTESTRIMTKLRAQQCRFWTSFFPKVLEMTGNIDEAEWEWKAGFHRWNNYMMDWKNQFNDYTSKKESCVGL
# measurement-notes: Competitive inhibition of human serum BChE using butyrylthiocholine iodide as substrate by Lineweaver-Burk plot analysis
Could you please report measured Ki for the items listed next?
Answers are plain numbers, in µM.

>  <item-smiles>
COc1ccc(/C=N/NC(=O)Nc2ccncc2)cc1OC

>  <measured-on>
UniProt P06276

>  <property-name>
Ki

>  <test-result>
283

$$$$
>  <item-smiles>
O=C(N/N=C/c1ccccc1)Nc1ccncc1

>  <measured-on>
UniProt P06276

>  <property-name>
Ki

>  <test-result>
685

$$$$
>  <item-smiles>
COc1ccc(/C=N/NC(=O)Nc2ccncc2)cc1

>  <measured-on>
UniProt P06276

>  <property-name>
Ki

>  <test-result>
624

$$$$

Give Ki for all compounds that follow.
1. O=C(NN=C(c1ccccc1)c1ccccc1)Nc1ccncc1
2. C/C(=N\NC(=O)Nc1ccncc1)c1ccc(O)cc1

-- reply
[16.8, 0.628]
